target: α1B adrenoceptor (Rattus norvegicus, UniProt P15823)
Sequence (P15823 whole entry): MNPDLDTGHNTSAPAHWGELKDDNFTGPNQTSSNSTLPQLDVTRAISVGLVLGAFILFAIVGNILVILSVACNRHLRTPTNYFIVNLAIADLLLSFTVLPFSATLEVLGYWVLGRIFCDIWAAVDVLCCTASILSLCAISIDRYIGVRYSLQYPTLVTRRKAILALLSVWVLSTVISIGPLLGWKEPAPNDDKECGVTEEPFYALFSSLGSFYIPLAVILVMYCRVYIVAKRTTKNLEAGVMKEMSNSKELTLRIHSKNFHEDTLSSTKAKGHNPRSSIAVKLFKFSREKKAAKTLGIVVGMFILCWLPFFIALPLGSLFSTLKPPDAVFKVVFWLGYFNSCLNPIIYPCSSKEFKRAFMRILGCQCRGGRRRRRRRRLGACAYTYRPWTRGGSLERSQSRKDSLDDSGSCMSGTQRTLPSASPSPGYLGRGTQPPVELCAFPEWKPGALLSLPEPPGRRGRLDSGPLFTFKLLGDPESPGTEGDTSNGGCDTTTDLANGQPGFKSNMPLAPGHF
Structures can show the parent of a compound that is named as a salt.
QUANTITY_MEASURED: Ki (nM)

The examples below pair each entry with its known result.
COMPOUND	TEST_SYSTEM	Ki / nM
Fc1ccc2c(C3CCN(CCCN4CCCCC4)CC3)c[nH]c2c1 [Example 21, Hydrochloride]	α1B adrenoceptor (Rattus norvegicus, UniProt P15823)	0.63
c1ccc2c(c1)CN(CCCCCN1CCC(c3c[nH]c4ccccc34)CC1)C2	α1B adrenoceptor (Rattus norvegicus, UniProt P15823)	1.6

A = Fc1ccc2c(C3CCN(CCCN4Cc5ccccc5C4)CC3)c[nH]c2c1 [Example 23, Hydrochloride]
B = c1ccc2c(c1)CN(CCCCN1CCC(c3c[nH]c4ccccc34)CC1)C2 [Example 15, Hydrochloride]
C = c1ccc(C2CCN(CCCN3CCC(c4ccccc4)CC3)CC2)cc1 [Reference Example 21, Hydrochloride, reference compound]
D = c1ccc2c(c1)CN(CCCN1CCC(c3c[nH]c4ccccc34)CC1)C2 [Example 14, Hydrochloride]
Data request: Hey, quick one: sort these by Ki, largest value first please. As an answer, provide the labels arranged in the order called for.
Data returned: C, D, B, A
